target: Torsin-1A-interacting protein 1 (Homo sapiens) (UniProt Q5JTV8); assay: compound microarray binding of lysate hLAP1 – cell lysate, small-molecule microarray, COS7 lysate, 635/667 nm fluorescence, primary screen (AID 1116); details: 635 nm fluorescence, higher = more signal
Sequence (Q5JTV8 whole entry, looked up): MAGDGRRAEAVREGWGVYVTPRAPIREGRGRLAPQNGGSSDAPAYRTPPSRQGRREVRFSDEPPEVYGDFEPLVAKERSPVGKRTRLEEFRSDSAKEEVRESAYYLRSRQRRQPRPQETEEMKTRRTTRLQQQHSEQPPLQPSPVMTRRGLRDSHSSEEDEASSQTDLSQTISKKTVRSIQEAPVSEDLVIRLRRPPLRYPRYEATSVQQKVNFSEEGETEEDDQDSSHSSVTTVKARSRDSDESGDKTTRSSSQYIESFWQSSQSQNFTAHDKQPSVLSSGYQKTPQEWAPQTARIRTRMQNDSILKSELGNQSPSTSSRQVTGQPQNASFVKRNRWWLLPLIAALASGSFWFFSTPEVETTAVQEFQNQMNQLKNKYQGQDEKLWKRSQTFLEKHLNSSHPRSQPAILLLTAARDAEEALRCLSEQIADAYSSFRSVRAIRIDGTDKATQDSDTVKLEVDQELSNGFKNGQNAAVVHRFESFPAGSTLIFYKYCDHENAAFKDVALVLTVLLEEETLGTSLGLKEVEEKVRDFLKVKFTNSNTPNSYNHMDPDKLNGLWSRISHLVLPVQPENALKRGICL
Metric name: composite z-score

[in] Identify the measured composite z-score of COCCOC(=O)N1C(=O)[C@@]2(c3ccccc31)[C@H](c1ccccc1OCCO)N1[C@H](c3ccccc3)[C@H](c3ccccc3)OC(=O)[C@H]1[C@@H]2C(=O)N1CCc2cc(OC)c(OC)cc2C1 for Torsin-1A-interacting protein 1 (Homo sapiens) (UniProt Q5JTV8).
[out] 0.561

[in] Value wanted: composite z-score (Torsin-1A-interacting protein 1 (Homo sapiens) (UniProt Q5JTV8)) of entry CCOc1cc(C(O)C2C=CC3C(=O)NC(=O)C3N2Nc2ccccn2)ccc1O (centres undefined)
[out] 0.229

[in] Value wanted: composite z-score (Torsin-1A-interacting protein 1 (Homo sapiens) (UniProt Q5JTV8)) of entry COCCOC(=O)N1C(=O)[C@@]2(c3cc(C#CCCO)ccc31)[C@H](C(=O)NC[C@H](O)c1ccccc1)[C@H]1C(=O)O[C@H](c3ccccc3)[C@H](c3ccccc3)N1[C@@H]2c1ccccc1OCCO
[out] 1.12

[in] # returns recorded composite z-score (system: Torsin-1A-interacting protein 1 (Homo sapiens) (UniProt Q5JTV8)) for [N-]=[N+]=NCc1ccccc1[C@H]1OC(c2ccc(OCCCO)cc2)=N[C@@]1(Cc1ccccc1N=[N+]=[N-])C(=O)N1CCCCC1
[out] 1.44

[in] Missing value: composite z-score, Torsin-1A-interacting protein 1 (Homo sapiens) (UniProt Q5JTV8), entry CCCN1C(=O)[C@@]2(Cc3ccccc3)N=C(c3ccc(OCCCO)cc3)O[C@H]2c2ccccc21 . Fill in?
[out] 1.48

[in] Could you share what composite z-score was measured for CCOC(=O)C1=CCC(c2cccc(Cl)c2)O1 (centres undefined) , tested on Torsin-1A-interacting protein 1 (Homo sapiens) (UniProt Q5JTV8)?
[out] 0.291

[in] composite z-score of CC(C)c1ccc(NN2C(C(O)c3cccs3)C=CC3C(=O)N(c4ccccc4)C(=O)C32)cc1 (centres undefined) on Torsin-1A-interacting protein 1 (Homo sapiens) (UniProt Q5JTV8)?
[out] 0.789

[in] Lab note: need composite z-score with Torsin-1A-interacting protein 1 (Homo sapiens) (UniProt Q5JTV8) for entry N#Cc1ccc(NN2C(C(O)c3ccccc3)C=CC3C(=O)N(c4ccccc4)C(=O)C32)cc1 (centres undefined) , please look it up.
[out] -0.113

[in] Give Torsin-1A-interacting protein 1 (Homo sapiens) (UniProt Q5JTV8) composite z-score for CC(C)C[C@@H]1NC(=O)[C@@]23C(=O)N[C@@H](Cc4ccccc4)C2[C@H](C)[C@@]2(C)O[C@H]2C3/C=C/C/C=C\CNC(=O)[C@@H]2CCCN2C1=O (some centres undefined)
[out] -0.22

[in] GET /values?readout=composite z-score&system=Torsin-1A-interacting protein 1 (Homo sapiens) (UniProt Q5JTV8)&item= C[C@]12C(=O)N(CCCCCO)[C@@H]3C(=O)N(c4ccc(Cl)cc4)CC=CC31O[C@@H]1/C=C\CCCOC(=O)C12 (some centres undefined)
[out] -0.579

[in] Give the reported composite z-score for CN(C)C(=O)[C@@]1(CCS(=O)(=O)c2ccccc2)N=C(c2ccc(OCCCO)cc2)O[C@H]1c1ccccc1CN=[N+]=[N-] (system: Torsin-1A-interacting protein 1 (Homo sapiens) (UniProt Q5JTV8)).
[out] 1.09

[in] Query the reported composite z-score for Torsin-1A-interacting protein 1 (Homo sapiens) (UniProt Q5JTV8); item: C=CCNC(=O)[C@@H]1[C@H]2C(=O)O[C@H](c3ccccc3)[C@H](c3ccccc3)N2[C@H](c2ccc(O)cc2)[C@@]12C(=O)Nc1ccc(C#CCCO)cc12
[out] -0.275

[in] Give Torsin-1A-interacting protein 1 (Homo sapiens) (UniProt Q5JTV8) composite z-score for O=C(CS)NCCCCCNC(=O)[C@@H]1C[C@@H]2C(=O)N3CCC[C@H]3C(=O)N2[C@@H]1c1ccc(O)cc1
[out] 0.375

[in] Reported composite z-score for Torsin-1A-interacting protein 1 (Homo sapiens) (UniProt Q5JTV8), given CCCNC(=O)[C@@]1(Sc2ccc(C)cc2)CC(=O)N(Cc2ccccc2)[C@@H]1c1ccc(CO)cc1I ?
[out] 0.285

[in] // fetch Torsin-1A-interacting protein 1 (Homo sapiens) (UniProt Q5JTV8) composite z-score for O=C1O[C@H](c2ccccc2)[C@H](c2ccccc2)N2[C@H]1[C@@H](C(=O)N1CCN(c3ncccn3)CC1)[C@]1(C(=O)Nc3ccc(C#CCCO)cc31)[C@H]2c1ccccc1OCCO
[out] 0.453

[in] Lab note: need composite z-score with Torsin-1A-interacting protein 1 (Homo sapiens) (UniProt Q5JTV8) for entry [N-]=[N+]=NCc1ccccc1C[C@]1(C(=O)NCCN2CCOCC2)N=C(c2ccc(OCCCO)cc2)O[C@H]1c1ccccc1 , please look it up.
[out] 1.46

[in] Identify the measured composite z-score of O=C1O[C@H](c2ccccc2)[C@H](c2ccccc2)N2[C@H]1[C@@H](C(=O)N1CCCCCCC1)[C@]1(C(=O)Nc3ccc(C#CCCO)cc31)[C@H]2c1ccc(OCCO)cc1 for Torsin-1A-interacting protein 1 (Homo sapiens) (UniProt Q5JTV8).
[out] 5.44

[in] Find composite z-score (Torsin-1A-interacting protein 1 (Homo sapiens) (UniProt Q5JTV8)) for the entry O=[N+]([O-])c1ccc(C[n+]2ccc(-c3ccc(CO)cc3)cc2)o1
[out] 1.12

[in] // fetch Torsin-1A-interacting protein 1 (Homo sapiens) (UniProt Q5JTV8) composite z-score for C[C@H]1ON(c2ccccc2)[C@@H](c2ccccc2)[C@@H]1C(=O)N1C(=O)OC[C@@H]1c1ccccc1
[out] 0.357
